Reference source: patent US20110135636A1

- experimental_target: T1, recombinant human EGFR extracellular domain with 6xHis (human, UniProt P00533 25-645)
- T1 construct: In-house produced; also called 6xHis EGFR ECD; soluble human EGFR ECD; not shown: 6xHis tag
- test_method_notes: SPR (BIAcore 2000); IgG captured on anti-human Fc, soluble monovalent EGFR ECD injected
Mark FALSE for t1/2 values under 4 min, and TRUE for everything at or above.

Examples with answers:
binder	class_label
antibody 1261 (antibody, human IgG1, kappa, V domains shown, Chimeric IgG1 kappa) VH: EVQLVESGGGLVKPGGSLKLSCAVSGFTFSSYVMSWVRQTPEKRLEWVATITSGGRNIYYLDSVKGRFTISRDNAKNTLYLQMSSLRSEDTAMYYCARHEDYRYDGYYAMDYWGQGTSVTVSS VL: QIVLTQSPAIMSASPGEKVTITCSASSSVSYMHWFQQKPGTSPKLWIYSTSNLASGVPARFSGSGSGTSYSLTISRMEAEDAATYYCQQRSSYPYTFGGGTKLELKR	FALSE
antibody 992 (antibody, human IgG1, kappa, V domains shown, Chimeric mouse/human IgG1 kappa; the VL entry includes the human kappa constant region) VH: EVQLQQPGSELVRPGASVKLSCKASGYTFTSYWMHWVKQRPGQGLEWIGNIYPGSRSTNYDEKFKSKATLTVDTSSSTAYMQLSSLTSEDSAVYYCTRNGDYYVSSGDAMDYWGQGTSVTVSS VL: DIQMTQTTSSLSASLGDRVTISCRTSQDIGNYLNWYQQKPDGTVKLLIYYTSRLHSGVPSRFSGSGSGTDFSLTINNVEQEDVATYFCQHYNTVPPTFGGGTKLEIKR	FALSE
antibody 1030 (antibody, human IgG1, kappa, V domains shown, Chimeric IgG1 kappa) VH: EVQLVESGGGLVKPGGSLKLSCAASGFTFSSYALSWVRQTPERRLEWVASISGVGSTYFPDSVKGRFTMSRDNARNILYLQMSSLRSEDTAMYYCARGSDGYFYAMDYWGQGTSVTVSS VL: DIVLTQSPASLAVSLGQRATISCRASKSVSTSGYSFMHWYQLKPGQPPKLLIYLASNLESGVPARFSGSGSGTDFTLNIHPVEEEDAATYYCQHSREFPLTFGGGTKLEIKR	TRUE

# bool: t1/2 of antibody 1024 (antibody, human IgG1, kappa, V domains shown, Chimeric IgG1 kappa) VH: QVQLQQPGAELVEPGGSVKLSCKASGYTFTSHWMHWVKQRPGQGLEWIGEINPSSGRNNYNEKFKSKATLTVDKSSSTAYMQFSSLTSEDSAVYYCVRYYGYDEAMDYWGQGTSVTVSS VL: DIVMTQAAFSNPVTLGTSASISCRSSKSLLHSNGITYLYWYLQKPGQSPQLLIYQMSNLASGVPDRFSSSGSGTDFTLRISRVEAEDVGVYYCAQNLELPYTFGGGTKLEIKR >= 4 min
FALSE

# bool: t1/2 of antibody 1254 (antibody, human IgG1, kappa, V domains shown, Chimeric IgG1 kappa; also called mAb 1254) VH: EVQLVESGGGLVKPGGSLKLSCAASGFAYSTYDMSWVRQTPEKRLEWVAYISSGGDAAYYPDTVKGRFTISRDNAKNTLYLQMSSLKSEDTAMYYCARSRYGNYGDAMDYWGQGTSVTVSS VL: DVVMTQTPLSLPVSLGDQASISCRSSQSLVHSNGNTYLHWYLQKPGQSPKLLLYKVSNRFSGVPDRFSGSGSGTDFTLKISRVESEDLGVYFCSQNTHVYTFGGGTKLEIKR >= 4 min
TRUE
